Sourced from patent US4735943A

# System: erythrocyte deformability
# Method Summary: Acceleration on Erythrocyte Deformability (filtration-pressure method)
# Format: in vivo, Wister male rats
# Assay Context: rats, 10 mg/kg oral, blood 1 h after administration, 0.1% erythrocyte suspension
Friendly reminder: Reduction Rate in Filtering Pressure below 10% is TRUE, at or above is FALSE.

Study these solved cases before continuing.
INSERT INTO measurements (molecule, classification) VALUES
  ('CC[C@]12CCCN3CCc4c(n(c5ccccc45)C(=NOCCN4CCCC4)C1)[C@@H]32 [Example 4]', 'TRUE'),
  ('CCN(CC)CCON=C1C[C@]2(CC)CCCN3CCc4c(n1c1ccccc41)[C@@H]32 [Example 2]', 'TRUE');

Now examine the next entry.
Please state whether Reduction Rate in Filtering Pressure is below 10% for CC[C@]12CCCN3CCc4c(n(c5ccccc45)C(=NOCCN4CCN(c5ccccc5OC)CC4)C1)[C@@H]32 [Example 5]
FALSE
